- Assay system: Delta-type opioid receptor (Rattus norvegicus, UniProt P33533)
- Sequence (P33533 whole entry): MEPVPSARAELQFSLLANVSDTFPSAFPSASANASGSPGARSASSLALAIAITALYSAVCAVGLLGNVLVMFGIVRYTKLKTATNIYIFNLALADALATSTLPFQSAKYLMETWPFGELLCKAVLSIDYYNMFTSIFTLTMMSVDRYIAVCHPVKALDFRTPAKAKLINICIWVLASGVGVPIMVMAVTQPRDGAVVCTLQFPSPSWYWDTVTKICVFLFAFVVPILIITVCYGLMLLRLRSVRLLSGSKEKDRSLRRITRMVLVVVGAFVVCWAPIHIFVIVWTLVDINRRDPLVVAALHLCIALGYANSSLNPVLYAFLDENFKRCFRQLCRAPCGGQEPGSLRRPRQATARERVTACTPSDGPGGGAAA
- Experimental details: Displacement of [3H]deltorphin2 from DOR in rat brain homogenates by liquid scintillation counting
Where a SMILES comes first, the peptide text is derived from it. [ ]: non-standard residue; d: D form. Dmt = Cc1cc(O)cc(C)c1C[C@H](N)C(=O)O; dNMeA = CN[C@H](C)C(=O)O; Sar = CNCC(=O)O
# pIC50 per record follows
Would you please state pIC50, meaning minus log10 of the concentration in mol/L, as a bare number?

molecule="C[C@H](C(=O)N[C@@H](Cc1ccccc1)C(=O)N(C)CC(N)=O)N(C)C(=O)[C@@H](N)Cc1ccc(O)cc1 (H-Y[dNMeA]F[Sar]-NH2)" numeric_readout=8.15
molecule=Cc1cc(O)cc(C)c1C[C@H](N)C(=O)N(C)[C@H](C)C(=O)N[C@H]1Cc2ccccc2CN(CC(N)=O)C1=O numeric_readout=9.02
molecule=C[C@H](C(=O)N[C@H]1Cc2ccccc2CN(CC(N)=O)C1=O)N1Cc2cc(O)ccc2C[C@H](N)C1=O numeric_readout=7.75

// next item, pIC50 requested
Determine its reported pIC50: Cc1cc(O)cc(C)c1C[C@H](N)C(=O)N(C)[C@H](C)C(=O)N[C@@H](Cc1ccccc1)C(=O)N(C)CC(N)=O (H-[Dmt][dNMeA]F[Sar]-NH2)
8.31
